# Test system: CCRF-CEM leukemia
# Test summary: NCI tumour cell line growth inhibition, 48 h; in the data active = GI50 below about 0.43 µM; inactive = the rest
Labels: active, inactive

Test smiles	Qualitative label
Cc1ccc2c(N)c(C(=O)N[C@H]3CCc4cc(N5CC6CCC(C5)N6)ccc4C3)sc2n1	active
OCCCCC#Cc1ccccc1C#Cc1ccccc1C(F)(F)F	inactive
COc1ccc2[nH]c(Cl)c(/C=C3/C(=O)N(C)c4ccccc43)c2c1	inactive
O=C(Nc1ccc(Cl)cc1)c1cc2ccccc2cc1O	inactive
O=C1c2ccccc2-c2c1c1ccccc1c(=O)n2CCCN1CCOCC1	inactive
O=C(Nc1ncc(Cc2ccccc2Cl)s1)c1ccc2c(c1)OCCO2	active

====

# Test system: UACC-62 melanoma
# Test summary: NCI tumour cell line growth inhibition, 48 h
# key: entry, value: TGI

Compound	Measurement target	Relational operator	TGI (µM)
Cc1ccc2c(=O)c3cccc(CC(=O)O)c3oc2c1C	UACC-62 melanoma	>	100
O=C(c1ccncc1)n1nc(-c2ccccc2)c(N=Nc2ccc([N+](=O)[O-])cc2)c1-c1ccccc1	UACC-62 melanoma	>	100
CC1(C)C(=O)N=C(N)N1C(=O)OCc1ccccc1	UACC-62 melanoma	>	100
Fc1ccc(-c2ccc(-c3nnc(-c4cc(F)c(Cl)cc4Cl)o3)o2)cc1Cl	UACC-62 melanoma	=	51.2
NC1=NC(OCC2(CO)CCC2)C=C(NCC2(CO)CCC2)N1 (stereo not drawn)	UACC-62 melanoma	>	100
CC(C)CC1c2[nH]c3ccccc3c2C[C@H]2C(=O)NC(CCC(=O)OC(C)(C)C)C(=O)N12 (stereo partly drawn)	UACC-62 melanoma	>	100
Cc1cc(Cl)ccc1N=NC(=O)NNc1ccc(Cl)cc1C	UACC-62 melanoma	=	24.8
COC(=O)[C@H](Cc1ccccc1)NC(=O)N1CCN(C(=O)N[C@@H](Cc2ccccc2)C(=O)OC)CCN(C(=O)N[C@@H](Cc2ccccc2)C(=O)OC)CC1	UACC-62 melanoma	>	100
CC1=C(OC2OC(CO)C(O)C(O)C2O)C(=O)C[C@H]2C1=CC[C@@H]1[C@@]2(C)C(=O)C[C@]2(C)[C@@H]([C@@](C)(O)C(=O)CCC(C)(C)O)[C@H](O)C[C@@]12C (stereo partly drawn)	UACC-62 melanoma	>	100
ON=C1CCC(c2ccccc2)CC1 (stereo not drawn)	UACC-62 melanoma	>	100
CC(=O)Nc1ccc2c(C)c3c4ccccc4n(C)c3nc2n1	UACC-62 melanoma	=	69
Cc1cc(C)nc(Nc2nc3ccc([N+](=O)[O-])cc3[nH]2)n1	UACC-62 melanoma	>	100
O=C(c1ccccc1)c1c(C(=O)c2ccccc2)c(-c2ccccc2)c2c(-c3ccccc3)sc(-c3ccccc3)c2c1-c1ccccc1	UACC-62 melanoma	>	100
CCOC(=O)CC[C@@H](NC(=O)c1ccc(N[C@@H]2c3cc4c(cc3C(c3cc(OC)c(O)c(OC)c3)C3C(=O)OC[C@@H]32)OCO4)cc1)C(=O)OCC (stereo partly drawn)	UACC-62 melanoma	=	0.0557
C=C1C(=O)OC2CC3(CO3)C3C(O)C(O)CC3(C)CC12 (stereo not drawn)	UACC-62 melanoma	=	38
CCCCCCCCCCCCCCCCP(=O)(O)OP(=O)(O)OCC1OC(n2cnc3c(N)ncnc32)C(O)C1O (stereo not drawn)	UACC-62 melanoma	=	69.2
C=C1C(=O)OC2C1C(OC(=O)/C(C)=C/C)CC1(C)C(=O)CCC(=C)C21 (stereo not drawn)	UACC-62 melanoma	=	23.5
COc1cc(/C=C/C(=O)c2ccc(Cl)cc2)ccc1OS(=O)(=O)c1ccc(C)cc1	UACC-62 melanoma	=	20.3

====

Entries annotated with measured TGI
# Tested on: TK-10 renal
# Test summary: NCI tumour cell line growth inhibition, 48 h

Compound	TGI
O=C1c2ccccc2-c2ccc(N=[N+]([O-])c3ccc4c(c3)C(=O)c3ccccc3-4)cc21	> 100 µM
c1ccc(N=C2c3ccccc3C3=NCCCN32)cc1	> 100 µM
CC1(C)COC(/C=C/C2=NC(C)(C)CO2)=N1	27.2 µM
CCOC(=O)c1c(NC(=O)Nc2ccccc2)c(C(N)=O)c2n1CCCCC2	> 100 µM
CN(C)c1ccc2c3c(c(=O)oc2c1)CCC3	> 100 µM
C[N+]1(C)CCC(C#N)(c2ccccc2)CC1	> 100 µM
COC(=O)Nc1nc2ccccc2c(=O)[nH]1	> 100 µM
CC(=O)CCC[C@@H](C)[C@@H]1O[C@H]([C@@]2(C)CCC(=O)O2)C[C@H]2C(CSc3ccccc3)C(=O)O[C@@H]12 (stereo partly specified)	25.6 µM
CCCCCCCCCCCCCCCCP(=O)(O)OP(=O)(O)OCC1OC(n2cnc3c(N)ncnc32)C(O)C1O (stereo unspecified)	34.3 µM
S=C(N/N=C/c1ccccn1)Nc1ccccn1	> 100 µM
CN(C)CCNc1ccc2c(=O)n(CCN(C)C)c(=O)n3c4ccc(N)cc4c(=O)c1c23	6.13 µM
CC1(O)/C(=N/O)CC2CC1C2(C)C (stereo unspecified)	> 100 µM
CCOP(=O)(OCC)/C(C#N)=C/c1ccco1	> 100 µM
Cc1ccc2c(=O)c3cccc(CC(=O)O)c3oc2c1C	> 100 µM
O=C1C=Cc2ccccc2/C1=C/c1[nH]c(=O)[nH]c1O	85.4 µM
CCOC(=O)n1cncc1CC(NC(=O)Cc1c(C(=O)C=C(C)C)[nH]c2ccccc12)C(=O)OC (stereo unspecified)	34.2 µM
O=c1cc(-c2cccc(OC(F)(F)F)c2)[nH]c2cc3c(cc12)OCO3	> 100 µM
C=C1CC[C@@H]2C(C)(C)CCC[C@@]2(C)[C@@H]1Cc1cc(O)ccc1O	8.77 µM
CCN(CC)CCOc1ccc(/C=C2\CC3C4CC=C5C[C@@H](N6CCCC6)CC[C@]5(C)C4CC[C@]3(C)[C@H]2O)cc1OC (stereo partly specified)	37.2 µM
CCCCCc1c2nc(c(CCCCC)c3ccc([nH]3)c(CCCCC)c3ccc([nH]3)c(CCCCC)c3nc1C=C3)C=C2	> 100 µM
O=C(CCCn1ccnc1[N+](=O)[O-])NCCn1ccnc1	> 100 µM

====

# Tested on: BT-549 breast
# Test summary: NCI tumour cell line growth inhibition, 48 h
Observed property: log10(TGI) (log10 of the value in µM)

Molecule	log10(TGI)
Cc1cc2c(F)c(Oc3ncnn4cc(OC[C@@H](C)OC(=O)[C@H](C)N)c(C)c34)ccc2[nH]1	1.34
CC(NNC(=S)N1CCCCCC1)c1ccc2ccccc2n1 (configuration not stated)	1.77
O=C1c2ccccc2-c2c1c1ccccc1c(=O)n2CCCN1CCOCC1	1.41
CC(=O)O[C@H]1C(=O)[C@@]2(C)[C@H]([C@H](OC(=O)C3CCCCC3)[C@]3(O)C[C@H](OC(=O)[C@H](O)[C@@H](NC(=O)C4CCCCC4)C4CCCCC4)C(C)=C1C3(C)C)[C@]1(OC(C)=O)CO[C@@H]1C[C@@H]2O	-0.11
C=C1C(=O)C23CC1C[C@H](OC(C)=O)C2C1(C)C(OC(C)=O)C[C@H](O)C(C)(C)[C@H]1C(O)[C@@H]3OC(C)=O (some centres not stated)	1.13
COc1cc(-c2coc3c(OC)c(OC4OC(CO)C(O)C(O)C4O)c(OC)cc3c2=O)cc(OC)c1C (configuration not stated)	1.21
CN(C)CCO/N=C1/C=C2CC[C@H]3[C@@H]4CC[C@H](O)[C@@]4(C)CC[C@@H]3[C@@]2(C)CC1	0.92
CCN(CC)CCCCCCCNc1c2ccc(Cl)cc2nc2ccc(OC)cc12	0.52

====

compounds and their reported TGI
# System: T-47D breast
# Test summary: NCI tumour cell line growth inhibition, 48 h
Observed property: TGI (µM)

Compound	Measurement target	Observed property	Relational operator	Test result
O=S(=O)(c1ccc(I)cc1)N(c1ccccc1)S(=O)(=O)C(F)(F)C(F)(F)C(F)(F)C(F)(F)F	T-47D breast	TGI	>	100
NC1CC(=O)c2cc(Br)sc21 (stereo not drawn)	T-47D breast	TGI	>	100
CC1(C)COC(/C=C/C2=NC(C)(C)CO2)=N1	T-47D breast	TGI	=	34
C/C=C(/C)C(=O)O[C@H]1C(C)=C[C@]23C(=O)[C@@H](C=C(COC(C)=O)[C@@H](O)[C@]12O)[C@H]1[C@@H](C[C@H]3C)[C@@]1(C)OC(=O)/C(C)=C\C	T-47D breast	TGI	=	3.29
Cc1ccc(S(=O)(=O)N2CCCCN(S(=O)(=O)c3ccc(C)cc3)Cc3ccccc3OCCOCCOc3c4cccc3Cc3cccc5c3OCCOCCOc3ccccc3CN(S(=O)(=O)c3ccc(C)cc3)CCCN(S(=O)(=O)c3ccc(C)cc3)Cc3ccccc3OCCOCCOc3c(cccc3C4)Cc3cccc(c3OCCOCCOc3ccccc3C2)C5)cc1	T-47D breast	TGI	>	100
S=C(Nc1ccc(Cl)cc1)Nc1ccc(-c2nc3ccccc3[nH]2)cc1	T-47D breast	TGI	=	32.7
O=C1C(=O)c2ccccc2C(O)=C1C(CCc1ccccc1)C1=C(O)c2ccccc2C(=O)C1=O	T-47D breast	TGI	>	100
O=[N+]([O-])C(=C(N1CCOCC1)N1CCOCC1)/C(Cl)=C(\Cl)[N+](=O)[O-]	T-47D breast	TGI	=	4.39
